system: OVCAR-4 ovarian; assay: NCI tumour cell line growth inhibition, 48 h
Endpoint: GI50

## Task Please look up its GI50: CCC(C)C1=NC(C(=O)N/C=C\c2c[nH]c3cc(Br)c(Br)cc23)(C(C)C)NC1=O (stereo not drawn)
## Result 11.1 µM

## Task Please look up its GI50: `CC(C)CC(=O)[O-].N.N.N.N.N.[Co+3].[O-][Cl+3]([O-])([O-])[O-]`
## Result > 100 µM

## Task Please look up its GI50: CC(C)=C[C@@H]1C[C@H](C)[C@H]2CC[C@H](C)c3c(O)c(OC4OCC(O)C(O)C4O)c(C)c1c32 (stereo partly drawn)
## Result 9.39 µM

====

So I've got a bunch of molecules here, and I need their TGI values.
tested on: HT29 colon; experiment: NCI tumour cell line growth inhibition, 48 h

## Task Please look up its TGI: `COc1ccc(NC(=O)CC(=O)NN2C(=O)/C(=C/c3ccc(N(CCC#N)CCC#N)cc3C)N=C2/C=C\c2ccccc2)cc1`
## Result > 100 µM

## Task Please look up its TGI: CC(=O)O[C@H]1[C@@H]2OC(=O)C3(CC3)C2C[C@H]2O[C@]2(C)CC/C=C(\C)CCC[C@@H]1C (stereo not given in full)
## Result > 100 µM

## Task Please look up its TGI: `O=Cc1cn(CCCCCn2cc(C=O)c3ccccc32)c2ccccc12`
## Result > 100 µM

## Task Please look up its TGI: CC(=O)c1cccc(NC(=O)C(=O)C(C(=O)NN)c2ccccc2)c1 (stereo not given)
## Result > 100 µM

## Task Please look up its TGI: `Cc1nc(Nc2ccc(Cl)cc2)sc1C(=O)NNC(=O)C(=O)NN`
## Result 31.2 µM

====

system: SK-MEL-2 melanoma; test: NCI tumour cell line growth inhibition, 48 h
So I've got a bunch of compounds here, and I need their GI50 values.

## Task What reported GI50 corresponds to `CC(C)CC(=O)[O-].CC(C)CC(=O)[O-].N.N.N.N.[Co+3].[O-][Cl+3]([O-])([O-])O.[O-][Cl+3]([O-])([O-])[O-]` on SK-MEL-2 melanoma?
## Result > 100 µM

## Task What reported GI50 corresponds to `COc1ccc2[nH]c(=O)c(/C=C/C(=O)c3ccccc3OC)cc2c1` on SK-MEL-2 melanoma?
## Result 0.694 µM

## Task What reported GI50 corresponds to Cc1cc(-c2ccc(C3C(C#N)=C(N)Oc4c3c(=O)oc3ccccc43)cc2)cnc1F (stereo not drawn) on SK-MEL-2 melanoma?
## Result 35.3 µM

====

system: KM12 colon; assay: NCI tumour cell line growth inhibition, 48 h
Endpoint: TGI

## Task Please look up its TGI: `CCCCc1ccc(N2C(=O)c3cc([N+](=O)[O-])cnc3S2(=O)=O)cc1`
## Result > 100 µM

## Task Please look up its TGI: NC(Cc1cnc(I)[nH]1)C(=O)O (stereo not given)
## Result > 100 µM

## Task Please look up its TGI: `CC1(C)CC(/C=C2/OC(=O)c3ccccc32)=C(C(N)=O)C(=O)O1`
## Result > 100 µM

## Task Please look up its TGI: CCCCCCCCCOc1c(OC)cc(C2CC(=O)Nc3c2c(C)nn3-c2nc3ccccc3[nH]2)cc1OC (stereo not given)
## Result 3.08 µM

## Task Please look up its TGI: `C/C(=C1/N=C(c2cc([N+](=O)[O-])ccc2Cl)N(c2ccc(Br)cc2)C1=O)c1cc2ccccc2oc1=O`
## Result > 100 µM

## Task Please look up its TGI: C=CCCC1CCCCNC1=S (stereo not given)
## Result > 10 µM

## Task Please look up its TGI: `Cc1cnc(NC2CCOCC2)nc1-n1cnc(C(=O)N[C@H](CN)c2cc(F)cc(Cl)c2)c1`
## Result 30.1 µM

## Task Please look up its TGI: CCCCCCCCCCCCCCCCCCNc1nc(=O)n(C2CC(O)C(COP(=O)(O)OCC(COP(=O)(O)OC3C(CO)OC(n4ccc(N)nc4=O)C3O)OCCCCCCCCCCCCCCCCCC)O2)cc1F (stereo not given)
## Result > 100 µM

## Task Please look up its TGI: `O=c1[nH]c2ccccc2c(O)c1/C=N/C(=S)NCCc1ccccc1`
## Result > 100 µM

## Task Please look up its TGI: `c1ccc(-c2cn3nc(N4CCOCC4)sc3n2)cc1`
## Result > 100 µM

====

system: SF-295 CNS; assay: NCI tumour cell line growth inhibition, 48 h
Endpoint: TGI

## Task Please look up its TGI: `Nc1c(C(=O)c2cccc(-c3ccncc3)c2)cnn1-c1ccc(F)cc1`
## Result > 25 µM

## Task Please look up its TGI: CC12C=C[C@]3(CC[C@@H]4[C@@](C)(CO)CCC[C@]4(C)C3CC1)C2 (stereo partly specified)
## Result 34.1 µM

## Task Please look up its TGI: `O=C(O)c1c[nH]c2cc(OCc3ccccc3)ccc2c1=O`
## Result 34.4 µM

## Task Please look up its TGI: `O=C(O)C1(Cc2ccccc2)Cc2ccccc2C1`
## Result > 100 µM

## Task Please look up its TGI: `COc1ccc(O)c2c(=O)ccccc12`
## Result > 100 µM

## Task Please look up its TGI: `O=C(C1CC1)N1CC[C@@H](Cc2n[nH]c(=O)n2-c2ccc(-c3ccc4occc4c3)cc2)C1`
## Result > 100 µM

====

test system: MOLT-4 leukemia; assay: NCI tumour cell line growth inhibition, 48 h; in the data active = GI50 below about 0.43 µM; inactive = the rest
Where a SMILES comes first, the peptide text is derived from it. [ ]: non-standard residue; d: D form. The star is where a group is joined. ξ: configuration not given here. NMeF = CN[C@@H](Cc1ccccc1)C(=O)O; NMeN = CN[C@@H](CC(N)=O)C(=O)O; NMeV = CN[C@H](C(=O)O)C(C)C; ξNMeV = CNC(C(=O)O)C(C)C; Boc = CC(C)(C)OC(=O)*; ξNMeA = CNC(C)C(=O)O; ξV = CC(C)C(N)C(=O)O
API: response.call in active, inactive

## Task Any idea what this test logged for C=C1C(C(O)C[C@H](C)C2O[C@@]3(CCCCO3)CCC2C)O[C@@H]2CCC3(CCC(/C=C/[C@@H](C)C4CC(C)=CC5(O4)O[C@H](C[C@](C)(O)C(=O)O)CCC5O)O3)OC2[C@@H]1O (some centres undefined) ?
## Result active

## Task Any idea what this test logged for O=C1C=C2C(=CCOC2O)O1 (centres undefined) ?
## Result inactive

## Task Any idea what this test logged for COC(=O)C(C)N(C)C(=O)[C@H](CC(N)=O)N(C)C(=O)[C@@H]1CCCN1C(=O)[C@H](C(C)C)N(C)C(=O)C(C(C)C)N(C)C(=O)[C@H](Cc1ccccc1)N(C)C(=O)C(NC(=O)OC(C)(C)C)C(C)C (some centres undefined) (Boc-[ξV][NMeF][ξNMeV][NMeV]P[NMeN][ξNMeA]-OMe) ?
## Result inactive

## Task Any idea what this test logged for C1CCC(C(CC2CCCCN2)C2CCCCC2)CC1 (centres undefined) ?
## Result inactive

## Task Any idea what this test logged for `O=C(Nc1ccc(-n2ccc3c(NC(=O)c4ccccc4)ncnc32)cc1)c1ccc(Cl)c(C(F)(F)F)c1` ?
## Result inactive

## Task Any idea what this test logged for `CCN1CCN(Cc2ccc(NC(=O)c3nc4ccc5[nH]ncc5c4c4c3CCCC4)cc2C(F)(F)F)CC1` ?
## Result inactive

## Task Any idea what this test logged for `Nc1cc2ccccc2c(O)c1O` ?
## Result inactive

## Task Any idea what this test logged for `CC(C)CC(=O)[O-].CC(C)CC(=O)[O-].N.N.N.N.[Co+3].[O-][Cl+3]([O-])([O-])O.[O-][Cl+3]([O-])([O-])[O-]` ?
## Result inactive

## Task Any idea what this test logged for `C/C(=C\COc1ccc2ccc(=O)oc2c1)C1=CC(=O)C(C)(C)O1` ?
## Result inactive

## Task Any idea what this test logged for CCC(C)C1=NC(C(=O)N/C=C\c2c[nH]c3cc(Br)c(Br)cc23)(C(C)C)NC1=O (centres undefined) ?
## Result inactive

## Task Any idea what this test logged for `c1ccc(-c2nc([P+](c3ccccc3)(c3ccccc3)c3ccccc3)c(N3CCOCC3)o2)cc1` ?
## Result inactive

## Task Any idea what this test logged for `O=c1c2[nH]ccc2nc2n1CCS2` ?
## Result inactive

## Task Any idea what this test logged for `O=C(c1cccs1)c1c(C(F)(F)F)n([O-])c2ccc(Cl)cc2[n+]1=O` ?
## Result active

## Task Any idea what this test logged for `CC(C)CNC(=O)c1ccc(NC(=O)N(CC(C)C)C(=O)c2ccc(N)c(OCCCN)c2)c(OCCCN=C(N)N)c1` ?
## Result inactive
